// reported %Inh for each item listed
test system: PLK1; details: concentration: 1 μM, replicates: in singlicate; n = 1;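 further: KINOMEscan kinase panel screen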

Some molecules with known %Inh results, for comparison:
Cc1ccc(-c2ccc3occ(-c4ccc(S(C)=O)cc4)c3c2)nn1 (stereo not shown); 0%
Cl.O=C(Nc1ccc(Oc2ccc3[nH]c(NC(=O)c4ccco4)nc3c2)cc1)Nc1cc(C(F)(F)F)ccc1F; 0%
O=C(Nc1n[nH]c2cc(-c3cccs3)ccc12)C1CC1; 64%
Fc1cc(Cl)ccc1Nc1ccnc2cc(-c3ccc(CN4CCSCC4)o3)ccc12; 0%
COc1ccc(C)c(Nc2ccnc(Nc3ccc(-c4cnc[nH]4)cc3)n2)c1.Cl; 11%

The recorded %Inh for entry COc1cc(Nc2nccc(N3CCC(NS(=O)(=O)c4ccc(NC(C)=O)cc4)CC3)n2)cc(OC)c1OC equals 4%

###

test system: LRRK2; conditions: concentration: 1 μM, replicates: in singlicate; n = 1
The threshold is 20%. Values of %Inh beneath it are tagged rule met; values meeting or exceeding it are tagged rule not met.

N#Cc1cnc2cc(-c3cnc(CNCCN4CCOCC4)s3)ccc2c1Nc1ccc(Oc2ccccc2)cc1; rule met
COc1cccc(-c2nc(-c3ccccc3)[nH]c2-c2ccncc2)c1; rule met
O=C(O)C(F)(F)F.O=c1[nH]ccc2nc(N[C@@H]3CCNC3)nc(Nc3ccc4c(c3)S(=O)(=O)CC4)c12; rule not met

Ask: Here's an entry: Nc1ncc(-c2cn[nH]c2)c2scc(-c3ccc4c(c3)CCN4C(=O)Cc3ccccc3)c12 . Is its %Inh below 20%?
Reply: rule not met

Ask: Here's an entry: CCOc1nccc(-c2c(-c3ccc(F)cc3)ncn2C2CCNCC2)n1 . Is its %Inh below 20%?
Reply: rule met

Ask: Here's an entry: Cc1ccc(O)cc1Nc1ccnc2ccc(C(C)(C)C)cc12 . Is its %Inh below 20%?
Reply: rule not met

Ask: Here's an entry: Cc1cccc(Nc2nc(NCCN)ncc2C(N)=O)c1 . Is its %Inh below 20%?
Reply: rule met

Ask: Here's an entry: Cn1cc(-c2cnc(N)c3c(-c4ccc5c(c4)CCN5C(=O)Cc4ccccc4)csc23)cn1 . Is its %Inh below 20%?
Reply: rule met

Ask: Here's an entry: CN(c1ccc(NC(=O)Nc2cccc(Cl)c2)cc1)c1ccnc(N)n1.Cl . Is its %Inh below 20%?
Reply: rule not met

Ask: Here's an entry: NCCC(NC(=O)c1cc(Br)c(-c2ccnc3[nH]ccc23)s1)c1ccccc1.O=C(O)C(F)(F)F.O=C(O)C(F)(F)F (centres unmarked) . Is its %Inh below 20%?
Reply: rule met

Ask: Here's an entry: Cc1ccccc1CC(=O)N1CCc2cc(-c3cn(C)c4ncnc(N)c34)ccc21 . Is its %Inh below 20%?
Reply: rule not met

Ask: Here's an entry: CC(C)(C)c1ccc(C(=O)Nc2cn3cc(-n4ccnc4)ccc3n2)cc1 . Is its %Inh below 20%?
Reply: rule met

Ask: Here's an entry: O=C1NC(=O)C(c2ccccc2Cl)=C1Nc1cccc(Cl)c1 . Is its %Inh below 20%?
Reply: rule met

###

system: S6K1; details: concentration: 1 μM, replicates: in singlicate; n = 1
Rule: %Inh of 20% or more gives Fulfilled; anything lower gives Not fulfilled.

Known results for compounds:
CN(C)c1ncnc2nc[nH]c12; Fulfilled
Cc1cccc(Nc2nc(NCCN)ncc2C(N)=O)c1; Not fulfilled
COC(=O)Nc1nc2cc(Oc3ccc(NC(=O)Nc4cccc(SC)c4)cc3)ccc2[nH]1.Cl; Not fulfilled
Cc1cccc(Nc2nc(N[C@H]3CCCC[C@H]3N)ncc2C(N)=O)c1.Cl; Not fulfilled
CN1CCN(Cc2ccc(NC(=O)Nc3ccc(N(C)c4ccnc(Nc5ccc(CS(C)(=O)=O)cc5)n4)cc3)cc2)CC1.Cl; Not fulfilled

Ask: Entry CS(=O)(=O)c1cccc(CNc2nc(Nc3ccc4c(c3)CCC(=O)N4)ncc2C(F)(F)F)c1 : is its %Inh no less than 20%?
Reply: Not fulfilled

Ask: Entry O=C(Nc1n[nH]c2nc(-c3ccccc3)ccc12)C1CC1 : is its %Inh no less than 20%?
Reply: Not fulfilled

Ask: Entry Fc1cc(Cl)ccc1Nc1ccnc2cc(-c3ccc(CN4CCOCC4)o3)ccc12 : is its %Inh no less than 20%?
Reply: Fulfilled

Ask: Entry N#Cc1cnc2cc(-c3cnc(CNCCN4CCOCC4)s3)ccc2c1Nc1ccc(Oc2ccccc2)cc1 : is its %Inh no less than 20%?
Reply: Fulfilled

Ask: Entry COc1cc(Nc2ccnc3cc(-c4ccncc4)ccc23)cc(OC)c1OC.Cl : is its %Inh no less than 20%?
Reply: Not fulfilled

Ask: Entry COc1ccc(C2=C(Nc3cccc(O)c3)C(=O)NC2=O)cc1 : is its %Inh no less than 20%?
Reply: Not fulfilled

Ask: Entry COc1cc(Nc2nccc(N3CCC(NC(=O)Nc4ccc5c(c4)OCO5)C3)n2)cc(OC)c1OC (stereo not shown) : is its %Inh no less than 20%?
Reply: Not fulfilled

Ask: Entry Cn1cc(-c2ccc3c(c2)CCN3C(=O)Cc2cc(F)cc(F)c2F)c2c(N)ncnc21 : is its %Inh no less than 20%?
Reply: Not fulfilled

Ask: Entry Cc1ccc(O)cc1Nc1ccnc2cc(-c3ccc(CN4CCCCC4)o3)ccc12 : is its %Inh no less than 20%?
Reply: Not fulfilled

Ask: Entry CCn1cnc2c(NCc3ccccc3)ncnc21 : is its %Inh no less than 20%?
Reply: Not fulfilled

Ask: Entry Cc1nn2c(=O)cc(N3CCO[C@H](C)C3)nc2n1Cc1cccc(Cl)c1Cl : is its %Inh no less than 20%?
Reply: Not fulfilled

Ask: Entry CSc1ccc(NC2=C(c3ccc(Cl)cc3)C(=O)NC2=O)cc1 : is its %Inh no less than 20%?
Reply: Not fulfilled

Ask: Entry Cc1ccc(NC(=O)c2cccc(N3CCCCC3)c2)cc1-c1ccc(C(=O)NCC2CC2)cc1 : is its %Inh no less than 20%?
Reply: Not fulfilled

Ask: Entry Nc1cccc(-c2ccc3c(N)n[nH]c3c2)c1 : is its %Inh no less than 20%?
Reply: Not fulfilled

Ask: Entry COC(=O)Nc1nc2ccc(Oc3ccc(NC(=O)Nc4cc(C(F)(F)F)ccc4F)cc3)cc2[nH]1.Cl : is its %Inh no less than 20%?
Reply: Fulfilled
